Measured glycan array binding signal (z-score) of individual entries
- Study Target: GalNAc(b1-3)Gal(a1-4)Gal(b1-4)GlcNAc(b1-3)Gal(b1-4)Glc
- Assay Details: glycan array binding signal (z-score within array); higher = stronger binding
- Conditions Used: glycan notation: IUPAC condensed, linker removed
This excerpt belongs to a sample that is enriched for the strongest signals.
No unit in the answer, please; the number alone is enough.

Answered cases to consult:
OS9-MRH (Homo sapiens), Q13438 (protein) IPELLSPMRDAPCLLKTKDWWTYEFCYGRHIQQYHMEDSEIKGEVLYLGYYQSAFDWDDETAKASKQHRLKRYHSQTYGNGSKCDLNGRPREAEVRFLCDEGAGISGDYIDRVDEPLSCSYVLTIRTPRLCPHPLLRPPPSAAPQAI = -1.33
DrGRIFIN (Danio rerio), Q6DGJ1 (protein) MTLRFEASCPDGLCPGWSVILKGETPPEASKFEINFLCDRDDRVAFHFNPRFTESDIICNSYMANRWGQEERCNHFPLGVEEPFQIEIYSDNDHFHVYIDKAKVMQYKHRVEDLKTITKLQVVNDVKISSLEITKKLFY = -0.12
DC-ASGPR S+GEE (Homo sapiens) (protein) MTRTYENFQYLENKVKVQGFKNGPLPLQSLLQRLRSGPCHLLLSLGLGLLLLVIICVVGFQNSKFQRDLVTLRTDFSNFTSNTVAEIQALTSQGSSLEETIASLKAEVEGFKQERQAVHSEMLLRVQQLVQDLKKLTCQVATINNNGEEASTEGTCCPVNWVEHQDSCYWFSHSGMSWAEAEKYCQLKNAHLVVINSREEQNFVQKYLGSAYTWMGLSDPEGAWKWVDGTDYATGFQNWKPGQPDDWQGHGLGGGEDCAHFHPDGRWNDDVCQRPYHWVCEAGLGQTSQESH = 4.39
Cohesin-mDCIR (Macaca mulatta) (protein) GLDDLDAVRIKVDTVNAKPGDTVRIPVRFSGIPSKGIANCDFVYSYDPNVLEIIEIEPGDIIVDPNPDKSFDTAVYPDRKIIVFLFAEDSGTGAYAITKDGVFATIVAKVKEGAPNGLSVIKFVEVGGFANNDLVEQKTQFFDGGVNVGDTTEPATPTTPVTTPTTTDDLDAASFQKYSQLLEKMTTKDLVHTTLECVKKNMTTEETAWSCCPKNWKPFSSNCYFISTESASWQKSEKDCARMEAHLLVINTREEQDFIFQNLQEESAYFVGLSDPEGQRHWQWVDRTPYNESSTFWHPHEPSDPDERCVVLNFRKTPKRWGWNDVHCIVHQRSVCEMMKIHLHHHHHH = 0.862
Lb MiSSP8 (Laccaria bicolor) (protein) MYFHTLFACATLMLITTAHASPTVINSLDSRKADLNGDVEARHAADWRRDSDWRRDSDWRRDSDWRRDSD = 4.15

Here is the next item to consider.
Entry under review: Gal 9 (Homo sapiens), O00182 (protein) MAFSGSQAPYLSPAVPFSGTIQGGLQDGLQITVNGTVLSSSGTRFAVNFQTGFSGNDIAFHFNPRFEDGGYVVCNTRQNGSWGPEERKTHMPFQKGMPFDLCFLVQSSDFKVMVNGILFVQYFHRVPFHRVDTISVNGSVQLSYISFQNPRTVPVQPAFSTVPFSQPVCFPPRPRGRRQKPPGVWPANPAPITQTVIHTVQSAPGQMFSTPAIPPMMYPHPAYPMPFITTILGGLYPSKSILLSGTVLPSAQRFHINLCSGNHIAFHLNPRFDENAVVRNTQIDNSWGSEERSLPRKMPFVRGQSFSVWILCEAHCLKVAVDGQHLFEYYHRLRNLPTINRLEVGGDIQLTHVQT . Reported glycan array binding signal (z-score)?
-0.036
